Tested on: bermudagrass
assay.remarks: Test C pre-/postemergence herbicide test
Type: in vivo, Cynodon dactylon
condition.details: 62 g ai/ha; preemergence
readout.kind: Plant response rating (0 = no effect, 100 = complete control), Bermudagrass

Solved cases (4 shown):
>>> df
                                   compound  reading
0  CC(=NO)c1cccc(NC(=O)c2cc(C(C)(C)C)nn2C)c1 [Compound 102]      100
1  CCn1nc(C(C)(C)C)cc1C(=O)Nc1cccc(C#N)c1 [Compound 139]       60
2  CCn1nc(C(C)(C)C)cc1C(=O)Nc1ccc(F)c(C(=O)NCCF)c1 [Compound 60]       80
3  CCCn1nc(C(C)(C)C)cc1C(=O)Nc1cccc(C(=O)NCC)c1 [Compound 57]       55

Consider the record given below.
Fill in reported Plant response rating (0 = no effect, 100 = complete control), Bermudagrass for this entry: CCn1nc(C(C)(C)C)cc1C(=O)Nc1cc(C#N)ccc1F [Compound 140] 0

----------
System: velvetleaf
assay.remarks: Test C pre-/postemergence herbicide test
Format: in vivo, Abutilon theophrasti
condition.details: Preemergence, 500 g ai/ha; scale 0 to 100, 0 no effect, 100 complete control
Below, each entry is listed alongside its reported Velvetleaf plant response rating.
Please give only the number in your answer, with no unit.

Take a look at these entries with their results.
>>> df
                                   compound  assay_system  reading
0  CCn1nc(C(C)(C)C)cc1C(=O)Nc1cc(C#N)ccc1F [Compound 140]    velvetleaf       20
1  CCNC(=O)c1ccnc(NC(=O)c2cc(C(C)(C)C)nn2CC)c1 [Compound 152]    velvetleaf      100
2  CCNC(=O)c1cc(C)nc(NC(=O)c2cc(C(C)(C)C)nn2CC)c1 [Compound 149]    velvetleaf       60

Proceeding to the next compound to report its Velvetleaf plant response rating.
Quick one: give measured Velvetleaf plant response rating for CCn1nc(C(C)(C)C)cc1C(=O)Nc1cccc(C(C)=NO)c1 [Compound 108] 100

----------
Test system: giant foxtail
assay.remarks: Test B pre-/postemergence herbicide test
Assay type: in vivo, Setaria faberi
condition.details: 125 g ai/ha; 0 = no effect, 100 = complete control; preemergence
A collection of compounds and their measured Foxtail, Giant plant response rating (0 to 100 scale)
# output: bare number, no unit

                                   compound  reading
0  CCN(C)C(=O)c1cc(NC(=O)c2cc(C(C)(C)C)nn2CC)c(F)cc1F [Compound 254]        0

Please supply the value of reported Foxtail, Giant plant response rating (0 to 100 scale) for the item CCN(C)C(=O)c1cccc(NC(=O)c2sc(C(C)(C)C)nc2C)c1 [Compound 227] 10

Determine its reported Foxtail, Giant plant response rating (0 to 100 scale): CCn1nc(C(C)(C)C)cc1C(=O)Nc1cc(C(=O)N2CCCC2)ccc1F [Compound 242] 80

----------
Recorded Plant response rating, Soybean, one value per entry.
Test system: soybean
assay.remarks: Test C pre-/postemergence herbicide test
Assay type: in vivo, Glycine max
condition.details: 250 g ai/ha; scale 0-100; preemergence
Format: numeric value only, no unit, no commentary.

# example entries with known answers
>>> df
                                   molecule  reading
0  CCn1nc(C(C)(C)C)cc1C(=O)Nc1cncc(C(=O)N(C)C)n1       85
1  CCNC(=O)c1cccc(NC(=O)c2nn(C(C)(C)CC)nc2CC)c1       10
2  CCN1N=C(C(C)(C)C)CC1C(=O)Nc1cc(C(=O)N2CCCC2)ccc1F (racemic)       80

Please report Plant response rating, Soybean for the following molecule: C=CCNC(=O)c1cccc(NC(=O)c2sc(C(C)(C)C)nc2C)c1 0

----------
Tested on: common ragweed
assay.remarks: Test E pre-/postemergence herbicide test
Type: in vivo, Ambrosia elatior
condition.details: Preemergence; 500 g ai/ha; scale 0 (no effect) to 100 (complete control)
readout.kind: Plant response rating, Ragweed

Known Plant response rating, Ragweed results, listed for orientation:
>>> df
                                   molecule  reading
0  CCc1nn(C(C)(C)CC)nc1C(=O)Nc1cccc(C(=O)N(C)C)c1       70
1  Cc1nn(C(C)(C)C)nc1C(=O)Nc1cccc(C(=O)N(C)C)c1      100

Report measured Plant response rating, Ragweed; entry is CCn1nc(C(C)(C)C)cc1C(=O)Nc1cc(C(=O)N(C)C)ccc1F 95

Entry CCNC(=O)c1ccnc(NC(=O)c2cc(C(C)(C)C)nn2CC)c1 needs its Plant response rating, Ragweed filled in; supply it. 80

----------
System: pigweed
assay.remarks: Test C pre-/postemergence herbicide test
Type: in vivo, Amaranthus retroflexus
condition.details: 125 g ai/ha; scale 0 (no effect) to 100 (complete control); visual, 12 to 14 days; preemergence
readout.kind: Plant response rating, Pigweed

Take a look at these entries with their results.
>>> df
                                   molecule  assay_system  reading
0  CCNC(=O)c1ccnc(NC(=O)c2cc(C(C)(C)C)nn2CC)c1       pigweed      100
1  CCCCn1nc(C(C)(C)C)cc1C(=O)Nc1cccc(C(=O)NCC)c1       pigweed       90
2  CCc1nn(C(C)(C)C)cc1C(=O)Nc1cccc(C(C)=NO)c1       pigweed       95
3  CCN(CC)C(=O)c1cccc(NC(=O)c2cc(C(C)(C)C)nn2CC)n1       pigweed       90

Output Plant response rating, Pigweed of CCc1nc(C(C)(C)C)sc1C(=O)Nc1cccc(C(=O)NCC2CC2)n1 100

Identify Plant response rating, Pigweed associated with the compound C=CCNC(=O)c1cccc(NC(=O)c2sc(C(C)(C)C)nc2C)c1 100

For the compound CCn1nc(C(C)(C)C)cc1C(=O)Nc1cncc(C(=O)N(C)C)n1 , report Plant response rating, Pigweed. 100

----------
Tested on: wild oat
assay.remarks: Test B postemergence herbicide test
Assay type: in vivo, Avena fatua
condition.details: Postemergence, 500 g ai/ha; visual rating after 13 to 15 days, scale 0 (no effect) to 100 (complete control)
readout.kind: Plant response rating, Oat, Wild
Could you respond with only the numeric value?

Examples from the recorded data:
In [3]: df
Out[3]:
                                   compound  assay_system                      readout_kind  reading
0  CCCCn1nc(C(C)(C)C)cc1C(=O)Nc1cccc(C(=O)N(CC)CC)c1 [Compound 40]      wild oat  Plant response rating, Oat, Wild       10
1  CCCCn1nc(C(C)(C)C)cc1C(=O)Nc1cccc(C(=O)NCC)c1 [Compound 41]      wild oat  Plant response rating, Oat, Wild       10
2  CCCn1nc(C(C)(C)C)cc1C(=O)Nc1cccc(C(=O)NCC)c1 [Compound 57]      wild oat  Plant response rating, Oat, Wild       30
3  CCn1nc(C(C)(C)C)cc1C(=O)Nc1cccc(C(=O)OCC2CC2)c1C [Compound 93]      wild oat  Plant response rating, Oat, Wild       10
4  C=CCOC(=O)c1cccc(NC(=O)c2cc(C(C)(C)C)nn2CC)c1C [Compound 94]      wild oat  Plant response rating, Oat, Wild       10

Identify measured Plant response rating, Oat, Wild corresponding to C=Cn1nc(C(C)(C)C)cc1C(=O)Nc1cccc(C(=O)OCC)c1 [Compound 78] 20

Note Plant response rating, Oat, Wild for the compound shown: CCn1nc(C(C)(C)C)cc1C(=O)Nc1cccc(C(=O)NOC)c1 [Compound 67] 30

Read the entry CCOC(=O)c1cccc(NC(=O)c2cc(C(C)(C)C)nn2CCF)c1 [Compound 79] and write its reported Plant response rating, Oat, Wild. 30

----------
System: Italian ryegrass
assay.remarks: Test C postemergence herbicide test
Type: in vivo, Lolium multiflorum
condition.details: postemergence; 62 g ai/ha; scale 0 to 100
readout.kind: Plant response rating, Ryegrass, Italian
Lab note: record just the number, no unit beside it.

>>> df
                                   molecule  reading
0  C#CCOc1cccc(NC(=O)c2cc(C(C)(C)C)nn2CC)c1       45
1  C=CCN(CC=C)C(=O)c1ccc(F)c(NC(=O)c2cc(C(C)(C)C)nn2CC)c1       40
2  CCn1nc(C(C)(C)C)cc1C(=O)Nc1cccc(OC(F)(F)C(F)F)c1       35

Tell me its Plant response rating, Ryegrass, Italian given CCn1nc(C2(C)CC2)cc1C(=O)Nc1cccc(C(=O)N2CC=CC2)c1 as the entry. 50
